# Test system: OVCAR-3 ovarian
# assayDetails: NCI-60 one-dose screen, 48 h
# testSettings: 10 µM unless noted
Compounds without any hit were thinned out: in the full panel of roughly 83,000, 20% have a hit. Calls of active or inactive are those of the source. The calls were made as follows: active = growth percent below 10; inactive = the rest.
Field 'call' accepts t (active), f (inactive)

COc1ccc(CC(C#N)c2cc3ccccc3[nH]2)cc1 (stereo not given)    f
COc1cc2c(c(OC)c1OC)C(=O)CC(c1cccc(NC(=O)c3ccc(Br)cc3)c1)O2 (stereo not given)    f
O=C(NCCCN1CCOCC1)c1cccc(N2C(=O)/C(=C/c3ccc(F)cc3)SC2=S)c1    f
O=C(c1ccc(-c2nc(CSc3nc4ccccc4s3)no2)cc1)N1CCSCC1    f
O=C(NCCCCNC(=O)OCc1ccc2c(Cl)cc(Cl)c(O)c2n1)OCc1ccc2c(Cl)cc(Cl)c(O)c2n1    t
Cn1cc(-c2nc(-c3c[nH]c4ccncc34)cs2)c2ccccc21    f

Qu. Answer briefly: the call reported for Clc1ccc2c(c1)N(c1ncnc3ccc(-c4cnc5[nH]ncc5c4)cc13)CC2 in this assay.
Ans. f

Qu. Answer briefly: the call reported for CCCCC(=O)c1ccco1 in this assay.
Ans. f

Qu. Answer briefly: the call reported for CCN(CC)c1ccc(/C=C/C(=O)c2ccc(Nc3nc(Nc4ccccc4)nc(Nc4ccccc4)n3)cc2)cc1 in this assay.
Ans. f

Qu. Answer briefly: the call reported for COc1cc(OC)c2sc(-c3ccc(-n4cncc4-c4ccc(OC)c(OC)c4)cc3)nc2c1 in this assay.
Ans. f

* * *

Provide the reported growth of each item.
# System: EKVX NSCLC
# assayDetails: NCI-60 one-dose screen, 48 h (100 = growth as untreated, 0 = no growth, -100 = all killed)
# testSettings: 10 µM unless noted
About 83,000 compounds went through this panel and 20% of them were active in at least one assay; those are over-represented in the sample as a whole.
Numbers only, in %.

The following compounds have reported results that may help.
CCNc1nc(-c2ccc(Cl)c(OC)c2)c(-c2ccnc(NCCCNS(=O)(=O)c3ccc(Cl)cc3)n2)s1    75.4
CCn1c(=S)sc2c(Nc3ccc(F)cc3)nc(-c3cccnc3)nc21    80.5
C=CCc1c2c(c(OC)c3ccoc13)C(=O)/C(=C/c1ccccc1OC)O2    60.6
N#CC1C=CN(CC(N)=O)c2ccc3cccnc3c21 (centres undefined)    97.9
CCn1c(SCC(=O)c2ccc(Br)cc2)nnc1-c1ccncc1    102
C=C(C)[C@@H]1CC[C@]2(C(=O)NCCNCCN)CC[C@]3(C)[C@H](CC[C@@H]4[C@@]5(C)C/C(=C/c6ccncc6)C(=O)C(C)(C)[C@@H]5CC[C@]43C)[C@@H]12    92.2

Parameter requested: growth. Apply to each item below.
1. Cn1ccc2c3c(ccc21)CC3=O
2. COc1cc(CNC(=O)/C=C/C=C/c2ccc3c(c2)OCO3)ccc1OCc1cn(-c2ccc(C)c(C)c2)nn1
3. O=C1Nc2ccccc2/C1=C\c1nc(-c2ccccc2)n2ccccc12

Ans.
[103, 94.1, 74.1]

* * *

# Test system: 786-0 renal
# assayDetails: NCI-60 one-dose screen, 48 h (100 = growth as untreated, 0 = no growth, -100 = all killed)
# testSettings: 10 µM unless noted
Compounds without any hit were thinned out: in the full panel of roughly 83,000, 20% have a hit.
Provide the reported growth of each item.
Answers are plain numbers, in %.

The following compounds have reported results that may help.
N#Cc1c(N)nnn1Cc1cc(=O)oc2c1ccc1ccccc12    102
O=C1Nc2ccccc2/C1=C\c1nc(-c2ccccc2F)n2ccccc12    -34.5

Parameter requested: growth. Apply to each item below.
1. CCc1ccc(Oc2cn[nH]c2-c2ccc(OCCc3ccc(F)cc3)cc2O)cc1
2. COc1cc(CNS(=O)(=O)c2ccc(C)cc2)ccc1OCc1cn(-c2ccc(Br)cc2)nn1
3. N#Cc1cnc(NCCc2ccncc2)nc1-n1cnc2ccccc21
4. CC1(C)c2[nH]c3ccccc3c2C[C@]2(C)[C@H]3CC=C4[C@@H]5C[C@@](C)(C(N)=O)CC[C@]5(C)CC[C@@]4(C)[C@]3(C)CC[C@@H]12
5. CCOC(=O)c1ccc2[nH]c(O)c(C(=Nc3ccc(N(C)C(=O)CN4CCN(C)CC4)cc3)c3ccccc3)c2c1

Ans.
1. 99.7
2. 109
3. 40.3
4. 74.5
5. -95

Parameter requested: growth. Apply to each item below.
1. C[C@]12C=CC(=O)C=C1CCC1C2[C@@H](O)C[C@@]2(C)C1CC[C@]2(O)C(=O)COC(=O)CCC(=O)O (some centres undefined)
2. Cc1ccc(Cl)cc1Nc1nc(C(F)(F)F)ccc1C(=O)N/N=C/c1cccnc1

Ans.
1. 102
2. 2.05

Reference for the values: PubChem BioAssay (NCI)
